# pIC50 values compiled below
Biological target: Camphor 5-monooxygenase (Pseudomonas putida, UniProt P00183, L244A)
Test: Inhibition of L244A mutant cytochrome P450cam expressed in Escherichia coli
Scale: negative log10 of molar concentration, which is what pIC50 denotes.

CC(C)Cc1cncn1CC1CC1
5.00
CCCc1cncn1C1CCCC1
5.19
CC(C)(C)Cc1cncn1C1CC1
3.89
c1ccc(Cn2cncc2C2CC2)cc1
4.39

Below: the item to evaluate.
Supply pIC50 value. Item: CCCc1cncn1CC1CC1 4.44

---

Molecular target: Camphor 5-monooxygenase (Pseudomonas putida, UniProt P00183)
Sequence (P00183 whole entry): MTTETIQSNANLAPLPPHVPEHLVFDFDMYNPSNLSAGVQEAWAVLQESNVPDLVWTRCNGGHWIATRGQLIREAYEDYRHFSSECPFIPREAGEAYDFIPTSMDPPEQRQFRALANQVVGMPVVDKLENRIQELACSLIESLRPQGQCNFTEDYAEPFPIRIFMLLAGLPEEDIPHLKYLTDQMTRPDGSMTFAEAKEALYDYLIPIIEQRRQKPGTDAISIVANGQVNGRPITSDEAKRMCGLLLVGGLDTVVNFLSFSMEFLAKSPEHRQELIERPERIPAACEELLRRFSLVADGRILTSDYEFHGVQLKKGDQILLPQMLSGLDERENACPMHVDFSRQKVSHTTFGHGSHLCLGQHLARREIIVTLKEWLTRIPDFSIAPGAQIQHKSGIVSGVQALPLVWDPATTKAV
Assay: Inhibition of wild type cytochrome P450cam expressed in Escherichia coli at 1 mM
readout.name: inhibition at 1000 µM
Answer by giving the amount and then stating its unit.

With Camphor 5-monooxygenase (Pseudomonas putida, UniProt P00183) as the test system, provide measured inhibition at 1000 µM for this molecule: CCCc1cncn1CC1CC1 60%
